# method_notes: Dark toxicity against human MCF7 cells preincubated for 5 mins followed by compound washout and measured after 72 hrs by MTT assay
# Format: cell-based
Assignment: determine reported CC50 at 72 h for the given compounds.

cpd_smiles	CC50 at 72 h
Cc1ccc2c(C)nc3oc(-c4ccccc4)nc3c2n1	> 50 µM
COc1ccc(-c2ccc3c(C)nc4c(nnn4-c4ccccc4)c3n2)cc1	> 50 µM

stdin: Consider the compound shown here: COc1ccc(-n2nnc3c4[nH]c(=O)ccc4c(C)nc32)cc1 What is its recorded CC50 at 72 h?
stdout: > 50 µM

* * *

Assignment: determine reported Ratio CC50/EC50 for the given compounds.
# Tested on: MCF7
# method_notes: Phototoxicity index, ratio of CC50 for human MCF7 cells to EC50 for human MCF7 cells under UV irradiation at 1.5 J/cm2

Previously resolved entries follow.
cpd_smiles	Ratio CC50/EC50
COc1ccccc1-c1ccc2c(C)nc3oc(-c4cc(OC)c(OC)c(OC)c4)nc3c2n1	>14
COc1ccccc1-c1ccc2c(C)nc3oc(-c4ccccc4)nc3c2n1	>38
COc1cc(-c2nc3c(nc(C)c4ccc(-c5ccccc5)nc43)o2)cc(OC)c1OC	>8

Would you mind listing Ratio CC50/EC50 for each of the following compounds?
1. COc1ccc(-c2ccc3c(C)nc4c(nnn4-c4ccccc4)c3n2)cc1
2. COc1ccc(-c2nc3c(nc(C)c4ccc(-c5ccccc5)nc43)o2)cc1

stdout:
1: >1.5; 2: >5000

Entry source: ChEMBL document CHEMBL4325899
